- assayed_system: RBD domain of the SARS-CoV-2 S protein (Severe acute respiratory syndrome coronavirus 2, UniProt P0DTC2)

smiles_string	unit_label	Kd
NC(=O)C[C@H](NC(=O)CNC(=O)[C@H](Cc1ccc(O)cc1)NC(=O)[C@@H](N)CC(=O)O)C(=O)N[C@@H](Cc1c[nH]cn1)C(=O)N[C@@H](CCC(=O)O)C(=O)O	nM	50

* * *

- assayed_system: RBD domain of the SARS-CoV-2 S protein (Severe acute respiratory syndrome coronavirus 2, UniProt P0DTC2)
- test_name: biochemical
- Assay type: binding
- stated_conditions: KD Tmeasur. 25°C
No end group written: not given here.
assay_metric: Kd

> print(dat)
               substance  assay.metric   result
1  LYGNYE [J3.5, LYGNYE]            Kd   > 1 µM
2  MYGNYE [J3.4, MYGNYE]            Kd  > 10 µM
